Tested on: hypoxia-inducible endogenous VEGF expression
Assay: Hypoxia-inducible endogenous VEGF expression ELISA in HeLa cells, dose-response (EC50, Table 3)
Conditions: Homo sapiens, read-out: ELISA EC50 μM
EC50 values by entry
readout.name: EC50

compound="O=C(Oc1ccc(Cl)cc1)N1CCc2c([nH]c3ccc(Cl)cc23)C1c1ccc(OCCCCN2CCCCC2)cc1 (stereo not drawn)" target_desc="hypoxia-inducible endogenous VEGF expression" readout_name=EC50 recorded_result="0.008 to 0.04 µM"
compound="O=C(Oc1ccc(F)cc1)N1CCc2c([nH]c3ccc(Cl)cc23)C1c1ccc(OCC(O)CN2CCSCC2)cc1 (stereo not drawn)" target_desc="hypoxia-inducible endogenous VEGF expression" readout_name=EC50 recorded_result="< 0.008 µM"
compound="O=C(Oc1ccc(Cl)cc1)N1CCc2c([nH]c3ccc(Cl)cc23)C1c1ccc(OCC(O)CN2CCN(CCO)CC2)cc1 (stereo not drawn)" target_desc="hypoxia-inducible endogenous VEGF expression" readout_name=EC50 recorded_result="0.008 to 0.04 µM"

* * *

Tested on: soluble VEGF121 and VEGF165 isoforms
Experiment: ELISA of soluble VEGF production in multiple human tumor cell lines (EC50)
Type: cell-based
Details: HEK293 (Renal cell), 48 hours, read-out: VEGF Inhibition EC50
pEC50: −log10 of the molar value.
readout.name: pEC50

molecule="COc1ccc([C@H]2c3[nH]c4ccc(Cl)cc4c3CCN2C(=O)Oc2ccc(Cl)cc2)cc1 (racemic) [Compound #10]" recorded_result=8.00

* * *

System: soluble VEGF121 and VEGF165 isoforms
Assay: ELISA of soluble VEGF production in multiple human tumor cell lines (EC50)
Assay type: cell-based
Conditions: Pancreas, Capan-1, hypoxic (1% oxygen), 48 hours, read-out: VEGF Inhibition Approximate EC50
pEC50: −log10 of the molar value.
readout.name: pEC50

compound="COc1ccc([C@H]2c3[nH]c4ccc(Cl)cc4c3CCN2C(=O)Oc2ccc(Cl)cc2)cc1 (racemic)" readout_name=pEC50 recorded_result=~8.30

* * *

Tested on: hypoxia-inducible endogenous VEGF expression
Experiment: Hypoxia-inducible endogenous VEGF expression ELISA in HeLa cells, dose-response (EC50, Table 3)
Details: Homo sapiens, read-out: ELISA EC50 μM
readout.name: EC50

molecule="O=C(Oc1ccc(Cl)cc1)N1CCc2c([nH]c3ccc(Cl)cc23)C1c1ccc(OCCCCCCN2CCCC2)cc1 (stereo not shown) [Compound 783]" recorded_result="< 0.008 µM"
molecule="CC(C)NCCCOc1ccc(C2c3[nH]c4ccc(Cl)cc4c3CCN2C(=O)Oc2ccc(Cl)cc2)cc1 (stereo not shown) [Compound 953]" recorded_result="0.008 to 0.04 µM"
molecule="COc1ccc(OC(=O)N2CCc3c([nH]c4ccc(Cl)cc34)C2c2ccc(OCCCN(C)C)cc2)cc1 (stereo not shown) [Compound 501]" recorded_result="0.04 to 0.2 µM"
molecule="CN1CCN(CCCCOc2ccc(C3c4[nH]c5ccc(Cl)cc5c4CCN3C(=O)Oc3ccc(Cl)cc3)cc2)CC1 (stereo not shown) [Compound 704]" recorded_result="0.04 to 0.2 µM"

* * *

Test system: hypoxia-inducible endogenous VEGF expression
Assay: Hypoxia-inducible endogenous VEGF expression ELISA in HeLa cells, dose-response (EC50, Table 3)
Conditions: Homo sapiens, read-out: ELISA EC50 μM
readout.name: EC50

compound="O=C(Oc1ccc(Cl)cc1)Oc1ccc(C2c3[nH]c4ccc(Cl)cc4c3CCN2C(=O)Oc2ccc(Cl)cc2)cc1 (centres unmarked)" recorded_result="0.04 to 0.2 µM"
compound="CC(C)NCCCCCCOc1ccc(C2c3[nH]c4ccc(Cl)cc4c3CCN2C(=O)Oc2ccc(Cl)cc2)cc1 (centres unmarked)" recorded_result="< 0.008 µM"
compound="CC(=O)N1CCN(CCCOc2ccc(C3c4[nH]c5ccc(Cl)cc5c4CCN3C(=O)Oc3ccc(F)cc3)cc2)CC1 (centres unmarked)" recorded_result="< 0.008 µM"
compound="O=C(Oc1ccc(F)cc1)N1CCc2c([nH]c3ccc(Cl)cc23)C1c1ccc(OCCCCCCNCCCn2ccnc2)cc1 (centres unmarked)" recorded_result="0.04 to 0.2 µM"
compound="O=C(Oc1ccc(Cl)cc1)N1CCc2c([nH]c3ccc(Cl)cc23)C1c1ccc(OCCCN2CCSCC2)cc1 (centres unmarked)" recorded_result="< 0.008 µM"
compound="CN1CCN(CCCOc2ccc(C3c4[nH]c5ccc(Cl)cc5c4CCN3C(=O)Oc3ccc(Cl)cc3)cc2)CC1 (centres unmarked)" recorded_result="0.008 to 0.04 µM"
compound="CNCC(O)COc1ccc(C2c3[nH]c4ccc(Cl)cc4c3CCN2C(=O)Oc2ccc(Cl)cc2)cc1 (centres unmarked)" recorded_result="0.04 to 0.2 µM"
compound="O=C1NC2CSC(CCCCC(=O)OCCOc3ccc(C4c5[nH]c6ccc(Cl)cc6c5CCN4C(=O)Oc4ccc(Cl)cc4)cc3)C2N1 (centres unmarked)" recorded_result="< 0.008 µM"
compound="COCCCNCCCCCCOc1ccc(C2c3[nH]c4ccc(Cl)cc4c3CCN2C(=O)Oc2ccc(Cl)cc2)cc1 (centres unmarked)" recorded_result="< 0.008 µM"
compound="O=C(Oc1ccc(Cl)cc1)N1CCc2c([nH]c3ccc(Cl)cc23)C1c1ccc(OCCCCN2CCCC2)cc1 (centres unmarked)" recorded_result="0.008 to 0.04 µM"
compound="CN1CCCC(COc2ccc(C3c4[nH]c5ccc(Cl)cc5c4CCN3C(=O)Oc3ccccc3Cl)cc2)C1 (centres unmarked)" recorded_result="0.04 to 0.2 µM"
compound="O=C(Oc1ccc(F)cc1)N1CCc2c([nH]c3ccc(Cl)cc23)C1c1ccc(OCCCN2CCOCC2)cc1 (centres unmarked)" recorded_result="< 0.008 µM"
compound="COCCN(C)CC(O)COc1ccc(C2c3[nH]c4ccc(Cl)cc4c3CCN2C(=O)Oc2ccc(F)cc2)cc1 (centres unmarked)" recorded_result="< 0.008 µM"
compound="Cc1ccc(OC(=O)N2CCc3c([nH]c4ccc(Cl)cc34)[C@@H]2c2ccc(OCCC(O)CN3CCOCC3)cc2)cc1 (some centres unmarked)" recorded_result="0.04 to 0.2 µM"

Data origin, for the record: patent US20120202801A1
